System: Escherichia coli TOP10
experimental-protocol: shrunken log2 fold change of peptide-encoding DNA abundance (4.5 h post-induction vs induction); higher = less antimicrobial activity (less host growth inhibition)
conditions-used: time post-induction: 4.5 h; library: site-saturation at positions 5, 18, 19, 20
Label Y for high-side shrunken log2 fold change (at or above 0.2) and N for low-side shrunken log2 fold change (below it).

[
  {
    "sequence-code": "RRIRKRPPRLPRPRPRPHNEPRP",
    "target-under-test": "Escherichia coli TOP10",
    "class": "Y"
  },
  {
    "sequence-code": "RRIRVRPPRLPRPRPRPGPAPRP",
    "target-under-test": "Escherichia coli TOP10",
    "class": "Y"
  },
  {
    "sequence-code": "RRIRWRPPRLPRPRPRPGTDPRP",
    "target-under-test": "Escherichia coli TOP10",
    "class": "Y"
  },
  {
    "sequence-code": "RRIRLRPPRLPRPRPRPGVWPRP",
    "target-under-test": "Escherichia coli TOP10",
    "class": "Y"
  }
]

Does RRIRLRPPRLPRPRPRPTWAPRP have a reported shrunken log2 fold change of at least 0.2? N

Entry RRIRGRPPRLPRPRPRPKHAPRP : is its shrunken log2 fold change no less than 0.2? Y

Does shrunken log2 fold change meet or surpass 0.2 for RRIRIRPPRLPRPRPRPISGPRP ? N

Could you please find out whether RRIRIRPPRLPRPRPRPSRTPRP has shrunken log2 fold change that meets 0.2 or exceeds it? N

Textbook exercise: given the entry RRIRSRPPRLPRPRPRPDHNPRP , state whether its shrunken log2 fold change is greater than or equal to 0.2. N

Does the sequence RRIRRRPPRLPRPRPRPPWVPRP have recorded shrunken log2 fold change that is 0.2 or more? Y

Please indicate if the recorded shrunken log2 fold change for RRIRERPPRLPRPRPRPSDKPRP meets or exceeds 0.2. N

hey, is shrunken log2 fold change for this one >= 0.2? RRIRARPPRLPRPRPRPNLVPRP N

Reported shrunken log2 fold change at or above 0.2? RRIRARPPRLPRPRPRPVNDPRP Y

Could you please find out whether RRIRMRPPRLPRPRPRPPIKPRP has shrunken log2 fold change that meets 0.2 or exceeds it? Y

Hi team, for RRIRERPPRLPRPRPRPTYMPRP , is the recorded shrunken log2 fold change at or above 0.2? N

Decide: shrunken log2 fold change of RRIRPRPPRLPRPRPRPPYPPRP >= 0.2? N

Is shrunken log2 fold change for RRIRMRPPRLPRPRPRPAAIPRP at or above 0.2? Y

Can RRIRHRPPRLPRPRPRPYNNPRP be said to have shrunken log2 fold change at or above 0.2? N

Please tell me: is the sequence RRIRCRPPRLPRPRPRPAFWPRP at or over 0.2 in terms of shrunken log2 fold change? Y

Is the recorded value of shrunken log2 fold change equal to or greater than 0.2 for this sequence? RRIRKRPPRLPRPRPRPHFYPRP N

hey, is shrunken log2 fold change for this one >= 0.2? RRIRKRPPRLPRPRPRPCTMPRP N

Is reported shrunken log2 fold change greater than or equal to 0.2 here: RRIRVRPPRLPRPRPRPTISPRP N

shrunken log2 fold change >= 0.2 for RRIRYRPPRLPRPRPRPQDFPRP ? N

====

System: Escherichia coli TOP10
experimental-protocol: shrunken log2 fold change of peptide-encoding DNA abundance (4.5 h post-induction vs induction); higher = less antimicrobial activity (less host growth inhibition)
conditions-used: time post-induction: 4.5 h; library: site-saturation at positions 5, 18, 19, 20
Recorded measurements of shrunken log2 fold change, one per entry
Kindly provide the number alone.

[
  {
    "sequence-code": "RRIRRRPPRLPRPRPRPGMSPRP",
    "shrunken log2 fold change": 0.226
  }
]

Find the recorded shrunken log2 fold change belonging to RRIRSRPPRLPRPRPRPDWDPRP and report it. 0.157

Fill in: shrunken log2 fold change of RRIRHRPPRLPRPRPRPFGIPRP is ___ -0.0887

====

shrunken log2 fold change values for the sequences below.
Test system: Escherichia coli TOP10
experimental-protocol: shrunken log2 fold change of peptide-encoding DNA abundance (4.5 h post-induction vs induction); higher = less antimicrobial activity (less host growth inhibition)
conditions-used: time post-induction: 4.5 h; library: site-saturation at positions 5, 18, 19, 20
Number only, please.

// below: answered sequences
[
  {
    "sequence-code": "RRIRCRPPRLPRPRPRPMKWPRP",
    "shrunken log2 fold change": 0.0655
  },
  {
    "sequence-code": "RRIRERPPRLPRPRPRPDQEPRP",
    "shrunken log2 fold change": -0.0156
  },
  {
    "sequence-code": "RRIRKRPPRLPRPRPRPKCRPRP",
    "shrunken log2 fold change": 0.175
  },
  {
    "sequence-code": "RRIRWRPPRLPRPRPRPMYQPRP",
    "shrunken log2 fold change": -0.0254
  },
  {
    "sequence-code": "RRIRMRPPRLPRPRPRPKVQPRP",
    "shrunken log2 fold change": 1.85
  },
  {
    "sequence-code": "RRIRTRPPRLPRPRPRPVMNPRP",
    "shrunken log2 fold change": -0.143
  }
]

Continue with the next sequence.
What does the record list as shrunken log2 fold change for RRIRRRPPRLPRPRPRPMIKPRP ? 0.0444

====

Test system: Escherichia coli TOP10
experimental-protocol: shrunken log2 fold change of peptide-encoding DNA abundance (4.5 h post-induction vs induction); higher = less antimicrobial activity (less host growth inhibition)
conditions-used: time post-induction: 4.5 h; library: site-saturation at positions 5, 18, 19, 20
Recorded shrunken log2 fold change, one value per entry.
Response field accepts a number only; no unit should be typed.

Guide cases for shrunken log2 fold change, answers given:
[
  {
    "sequence-code": "RRIRGRPPRLPRPRPRPIGLPRP",
    "shrunken log2 fold change": 0.19
  },
  {
    "sequence-code": "RRIRERPPRLPRPRPRPLRRPRP",
    "shrunken log2 fold change": 0.303
  },
  {
    "sequence-code": "RRIRRRPPRLPRPRPRPNCLPRP",
    "shrunken log2 fold change": 0.312
  },
  {
    "sequence-code": "RRIRARPPRLPRPRPRPGPCPRP",
    "shrunken log2 fold change": 0.251
  },
  {
    "sequence-code": "RRIRYRPPRLPRPRPRPFVLPRP",
    "shrunken log2 fold change": -0.855
  },
  {
    "sequence-code": "RRIRPRPPRLPRPRPRPRHKPRP",
    "shrunken log2 fold change": -0.0467
  },
  {
    "sequence-code": "RRIRHRPPRLPRPRPRPMMMPRP",
    "shrunken log2 fold change": -0.0507
  },
  {
    "sequence-code": "RRIRCRPPRLPRPRPRPMMIPRP",
    "shrunken log2 fold change": -0.044
  },
  {
    "sequence-code": "RRIRWRPPRLPRPRPRPGFSPRP",
    "shrunken log2 fold change": 0.138
  },
  {
    "sequence-code": "RRIRMRPPRLPRPRPRPDQQPRP",
    "shrunken log2 fold change": -0.0225
  }
]

Which shrunken log2 fold change reading was recorded for the sequence RRIRIRPPRLPRPRPRPGKWPRP ? 0.0539

Return reported shrunken log2 fold change; argument: RRIRIRPPRLPRPRPRPKPTPRP 0.448

# lookup: shrunken log2 fold change of RRIRQRPPRLPRPRPRPSRMPRP -0.34

Bench note: what shrunken log2 fold change did RRIRKRPPRLPRPRPRPIVMPRP show? 0.0102

====

This listing pairs sequences with measured shrunken log2 fold change.
Tested on: Escherichia coli TOP10
experimental-protocol: shrunken log2 fold change of peptide-encoding DNA abundance (4.5 h post-induction vs induction); higher = less antimicrobial activity (less host growth inhibition)
conditions-used: time post-induction: 4.5 h; library: site-saturation at positions 5, 18, 19, 20
Please give the numeric answer without any surrounding text.

Below: 2 sequences and their reported shrunken log2 fold change.
[
  {
    "sequence-code": "RRIRFRPPRLPRPRPRPTKAPRP",
    "shrunken log2 fold change": 0.0916
  },
  {
    "sequence-code": "RRIRMRPPRLPRPRPRPKFSPRP",
    "shrunken log2 fold change": 0.0925
  }
]

Turning now to a further record.
// map RRIRTRPPRLPRPRPRPHHEPRP to recorded shrunken log2 fold change (system: Escherichia coli TOP10) -0.103

====

Test system: Escherichia coli TOP10;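 note: peptides expressed intracellularly from a pBAD plasmid library in pooled LB shake-flask culture, induced with 0.3% L-arabinose, DNA abundance read by NGS, three biological replicates, DESeq2 with apeglm shrinkage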
experimental-protocol: shrunken log2 fold change of peptide-encoding DNA abundance (4.5 h post-induction vs induction); higher = less antimicrobial activity (less host growth inhibition)
conditions-used: time post-induction: 4.5 h; library: site-saturation at positions 5, 18, 19, 20
reported-property: shrunken log2 fold change
Returns: the value as a bare number; no unit string appended.

Examples from the recorded data:
[
  {
    "sequence-code": "RRIRWRPPRLPRPRPRPRCSPRP",
    "shrunken log2 fold change": 0.362
  },
  {
    "sequence-code": "RRIRYRPPRLPRPRPRPMRSPRP",
    "shrunken log2 fold change": -0.0201
  },
  {
    "sequence-code": "RRIRCRPPRLPRPRPRPPPFPRP",
    "shrunken log2 fold change": 2.05
  },
  {
    "sequence-code": "RRIRMRPPRLPRPRPRPLMCPRP",
    "shrunken log2 fold change": -0.249
  },
  {
    "sequence-code": "RRIRSRPPRLPRPRPRPYCCPRP",
    "shrunken log2 fold change": -0.375
  },
  {
    "sequence-code": "RRIRLRPPRLPRPRPRPPMVPRP",
    "shrunken log2 fold change": -0.192
  },
  {
    "sequence-code": "RRIRFRPPRLPRPRPRPCADPRP",
    "shrunken log2 fold change": -0.102
  },
  {
    "sequence-code": "RRIRQRPPRLPRPRPRPMCCPRP",
    "shrunken log2 fold change": 0.0301
  },
  {
    "sequence-code": "RRIRYRPPRLPRPRPRPVQNPRP",
    "shrunken log2 fold change": -0.0153
  },
  {
    "sequence-code": "RRIRKRPPRLPRPRPRPAKFPRP",
    "shrunken log2 fold change": 0.602
  }
]

shrunken log2 fold change lookup needed for RRIRIRPPRLPRPRPRPPCCPRP , thanks. -0.31

Give the measured shrunken log2 fold change of RRIRCRPPRLPRPRPRPYIAPRP . -0.762

Report shrunken log2 fold change for RRIRARPPRLPRPRPRPANQPRP please. 0.0465

Fill in the blank: the reported shrunken log2 fold change of RRIRHRPPRLPRPRPRPACTPRP is ____. 0.0224

Please look up its shrunken log2 fold change: RRIRKRPPRLPRPRPRPLLVPRP 0.372

What value of shrunken log2 fold change has been reported for the following sequence? RRIRWRPPRLPRPRPRPVYLPRP -0.229

I have this sequence here, RRIRGRPPRLPRPRPRPMEMPRP , and I need its recorded shrunken log2 fold change. 0.756

For the sequence shown here, RRIRRRPPRLPRPRPRPVIPPRP , give the reported shrunken log2 fold change. 0.272

Form field: reported shrunken log2 fold change of RRIRHRPPRLPRPRPRPYRIPRP -0.231

Tell me the measured shrunken log2 fold change of RRIRLRPPRLPRPRPRPWVRPRP , please. -0.00819

What value of shrunken log2 fold change has been recorded for this entry: RRIRGRPPRLPRPRPRPFHDPRP -0.0838

Reported shrunken log2 fold change for RRIRQRPPRLPRPRPRPVVQPRP : what is it? -0.0933

So what's the measured shrunken log2 fold change for this one? RRIRSRPPRLPRPRPRPSPLPRP -0.324

For RRIRQRPPRLPRPRPRPGCPPRP , what is its reported shrunken log2 fold change? 0.414

Return reported shrunken log2 fold change; argument: RRIRHRPPRLPRPRPRPNDCPRP 0.000576

So what's the measured shrunken log2 fold change for this one? RRIRDRPPRLPRPRPRPKVKPRP -0.337

Find the recorded shrunken log2 fold change belonging to RRIRPRPPRLPRPRPRPQMSPRP and report it. 0.0674

Which shrunken log2 fold change value is on record for RRIRFRPPRLPRPRPRPPLHPRP ? 0.198

Given the entry RRIRYRPPRLPRPRPRPSHQPRP , report its measured shrunken log2 fold change. -0.594
